System: influenza virus H9N2 (A/Chicken/Korea/MS96/96)
Assay: in vitro
Details: dog
ENDPOINT NAME: selectivity ratio

### Prompt Item CCOC(=O)C1=C[C@@H](OC(CC)CC)[C@H](NC(C)=O)[C@@H](N)C1 [Tamiflu, reference compound] has what recorded selectivity ratio?
### Response > 200

----------
Target: neuraminidase of recombinant rvH1N1 influenza A virus (A/Bervig_Mission/1/18) (Influenza A virus, UniProt Q9IGQ6)
Sequence (Q9IGQ6 whole entry, looked up): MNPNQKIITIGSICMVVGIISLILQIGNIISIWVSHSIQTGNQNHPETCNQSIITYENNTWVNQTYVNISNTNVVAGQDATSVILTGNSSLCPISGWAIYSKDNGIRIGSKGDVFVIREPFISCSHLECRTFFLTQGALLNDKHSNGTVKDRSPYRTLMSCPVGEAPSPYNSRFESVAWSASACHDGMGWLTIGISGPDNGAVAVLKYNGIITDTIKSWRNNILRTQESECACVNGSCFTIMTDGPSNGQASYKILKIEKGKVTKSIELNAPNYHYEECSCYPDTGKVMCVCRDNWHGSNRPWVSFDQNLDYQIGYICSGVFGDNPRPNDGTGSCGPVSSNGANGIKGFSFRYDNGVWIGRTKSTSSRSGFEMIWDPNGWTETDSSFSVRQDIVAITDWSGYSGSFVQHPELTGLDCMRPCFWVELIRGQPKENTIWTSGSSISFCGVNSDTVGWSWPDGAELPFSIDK
Experiment: biochemical
ENDPOINT NAME: pIC50
Please note pIC50 is a logarithmic value: minus log10 of concentration in mol/L. Answer with that number alone.

### Prompt Item COc1cc(/C=C/C(=O)/C=C(O)/C=C/c2ccc(O)c(OC)c2)ccc1O [Curcumin] has what recorded pIC50?
### Response 5.52
